Tested on: MDA-N
Assay: NCI tumour cell line growth inhibition, 48 h
Calls of active or inactive are those of the source. Cut-off read from the data, not from the text of the source: active = GI50 up to about 1.1 µM and inactive = higher.
Permitted responses: YES = active, NO = inactive

[in] Which outcome did this test record for the compound O=c1[nH]c2nccn2c(Cl)c1Br ?
[out] NO

[in] I'd appreciate the recorded outcome for COC(=O)C1=C(O)C(C(=O)OC)[C@]2(O)[C@H](C(=O)OC)[C@H]1C[C@@H](c1ccc([N+](=O)[O-])cc1)[C@H]2C(=O)OC (some centres not stated) from this test.
[out] NO

[in] Given O=C1CC2CC(CC3(CO3)C2)C1F (configuration not stated) , state the outcome it received in this test.
[out] NO

[in] Which result was noted for this compound in the test: CC(C)(C)C1CCC2c3c([nH]c4ccccc34)C3C(=O)N(c4ccc5c(c4)C(=O)c4ccccc4C5=O)C(=O)C3C2C1 (configuration not stated)
[out] NO

[in] # lookup: test call for O=C1C=CC(=O)C(CNc2ccc(C(=O)OC34CC5CC(CC(C5)C3)C4)cc2)=C1Br
[out] NO

---
[in] Hello, I am checking results. What call was entered for COC1CCC(OS(C)(=O)=O)C(C)O1 (configuration not stated) ?
[out] NO

[in] For this compound, state the assay outcome: O=c1nc(N2CCCCC2)sc2[nH]c3ccccc3c12
[out] NO

[in] How did this test come out for Cc1cc(C)c2c(=O)n(CC(O)CN3CCN(CCOCCO)CC3)sc2n1 (configuration not stated) ?
[out] NO

[in] I would be grateful if you could indicate the recorded call for Cc1c(-c2ccccc2)oc(=O)c2ccccc12 .
[out] NO

[in] Any idea what this test logged for CCCC1=C(OC)C(=O)c2c(C)cc(Cl)nc2C1=O ?
[out] NO

[in] How was CCOC(=O)C#Cc1cccc(C#CC(=O)OCC)c1 classified in this test?
[out] NO

[in] Recorded call for Cc1cn([C@H]2C[C@H](O)[C@@H](CO)O2)c(=O)nc1N ?
[out] NO

[in] Which result was noted for this compound in the test: CCc1c(-c2ccc(OC)cc2)c(=O)oc2cc(O)ccc12
[out] NO

[in] Field: outcome | Entry: O=C(/C=C1/Nc2ccc([N+](=O)[O-])cc2N/C1=C/C(=O)c1ccccc1)c1ccccc1
[out] NO

---

Tested on: HT-29
Assay: NCI tumour cell line growth inhibition, 48 h
The source made the active and inactive calls. Rule as the data show it: active = GI50 up to about 1.1 µM and inactive = higher.
PROPERTY MEASURED: GI50

Before answering, review these 3 worked examples.
Looking up O=C1C(c2ccccc2)=[N+]([O-])c2ccccc21 , I see its GI50 listed as 20.2 µM (inactive)

Entry under test: Cc1cn([C@H]2C[C@H](O)[C@@H](CO)O2)c(=O)nc1N . Its GI50 was > 100 µM (inactive)

Entry COC(=O)C1=C(O)C(C(=O)OC)[C@]2(O)[C@H](C(=O)OC)[C@H]1C[C@@H](c1ccc([N+](=O)[O-])cc1)[C@H]2C(=O)OC (stereo not given in full) , GI50 reported as 22.6 µM (inactive)

Provide the reported GI50 of each entry below, same order.
1. Cn1c(=O)oc2cc(C(O)CN3CCN(Cc4ccccn4)CC3)c(Cl)cc21 (stereo not given)
2. C=CCCC1(CC(Sc2ccccc2)P(=O)(c2ccccc2)c2ccccc2)OCCO1 (stereo not given)
3. CC(C(N)=O)N(C)C(=O)c1cnc2ccccc2c1 (stereo not given)
4. CCOC(=O)C1=C(N)N(c2ccccc2)/C(=C2\SC(=S)N(c3ccc(C)cc3)C2=O)S1
5. CC(C)(C)N/N=C(\C(=O)Nc1ccc([N+](=O)[O-])cc1[N+](=O)[O-])c1nc2ccc([N+](=O)[O-])cc2nc1O
6. CC#COP(=O)(OCC)OCC
7. COc1cc(NC(C)CCCN)c2nccc(C)c2c1 (stereo not given)

[out]
1. > 100 µM (inactive)
2. > 10 µM (inactive)
3. > 100 µM (inactive)
4. 47.3 µM (inactive)
5. > 100 µM (inactive)
6. > 100 µM (inactive)
7. 31.9 µM (inactive)

---

Test system: SF-268
Test: NCI tumour cell line growth inhibition, 48 h
Calls of active or inactive are those of the source. Cut-off read from the data, not from the text of the source: active = GI50 up to about 1.1 µM and inactive = higher.
PROPERTY MEASURED: GI50

Below, each entry is followed by its recorded GI50 result.
The compound O/N=C(\c1ccccc1)N1CCCCC1 showed GI50 equal to > 100 µM (inactive)

Note to self: GI50 recorded for O=C(C#Cc1ccccc1)C1=Cc2ccccc2OC1 was 5.5 µM (inactive)

# GI50 of N#CCCN(CCC#N)c1ccc(C(=N/c2ccc(Cl)cc2)/N=N/c2ccc(Cl)cc2)cc1 = 15.7 µM (inactive)

Value of measured GI50 for the entry O=c1nc(N2CCCCC2)sc2[nH]c3ccccc3c12 : 54.3 µM (inactive)

The compound identified as CN(/N=C/C=N/N(C)C1=NCCN1)C1=NCCN1 registered its GI50 at > 100 µM (inactive)

// each compound listed below needs its GI50
1. C=C(C(N)=O)c1ccc([N+](=O)[O-])o1
2. Cc1ccc(I)cc1N=C=S
3. COC(=O)C1=C(C(=O)Nc2cccnc2Cl)N(c2ccc(OC)cc2[N+](=O)[O-])C(c2ccc(C)cc2)=CC1c1ccc(OC)cc1OC (stereo unspecified)
4. O=C1CC2CC(CC3(CO3)C2)C1F (stereo unspecified)

[out]
1. 8.36 µM (inactive)
2. 27.6 µM (inactive)
3. 24.6 µM (inactive)
4. > 100 µM (inactive)

Batch of 2 compounds: report GI50 for each.
1. CCCC[S+]([O-])CCC(N)P(=O)(O)O (stereo unspecified)
2. CCC(C)N1CN(c2ccccc2)C2(CCN(CCCC(=O)c3ccc(F)cc3)CC2)C1=O (stereo unspecified)

[out]
["> 100 µM (inactive)", "6.7 µM (inactive)"]

---

Tested on: NCI-H226
Assay: NCI tumour cell line growth inhibition, 48 h
Calls of active or inactive are those of the source. Rule as the data show it: active = GI50 up to about 1.1 µM and inactive = higher.
Provide the reported GI50 of each item.

// known answers, use as guide
N#Cc1c(N)nc(Nc2cccc3ccccc23)c(C#N)c1C#N has a reported GI50 of > 10 µM (inactive)

# compound CSc1cnn(CCC#N)c(=O)n1 ; its GI50 = > 100 µM (inactive)

Per the records, this compound ( O=C(Nc1nc2ncn(CCO)c2c(=S)[nH]1)c1ccccc1 ) has GI50 equal to > 100 µM (inactive)

For each entry beneath this line, provide reported GI50.
1. O=C(C#Cc1ccccc1)C1=Cc2ccccc2OC1
2. CCCCCCCCCCCCCCCCCCNc1ccn(C2OC(COP(=O)(O)OCC3OC(n4cc(F)c(NCCCCCCCCCCCCCCCCCC)nc4=O)CC3O)C(O)C2O)c(=O)n1 (configuration not stated)
3. Cc1ccc(N/C(=C(/C(Cl)=C(Cl)Cl)[N+](=O)[O-])n2nnc3ccccc32)cc1
4. Nc1ccc(Cc2c(N)[nH]c(=O)[nH]c2=O)cc1
5. O=C(NNC(=S)NCc1ccccc1)c1csc(NC(=S)NC2CCCCC2)n1
6. COc1ccc(C2[C@@H](Cl)C(=O)N2c2ccc(OC)cc2)cc1 (some centres not stated)
7. Cc1ccc(NC(=O)CCc2cc(C(C)(C)C)nc(S)n2)cc1C

[out]
2.55 µM (inactive)
> 100 µM (inactive)
18.5 µM (inactive)
86.1 µM (inactive)
5.93 µM (inactive)
> 100 µM (inactive)
> 100 µM (inactive)

---

Please provide measured GI50 for the entries that follow.
System: SN12C
Experiment: NCI tumour cell line growth inhibition, 48 h
Calls of active or inactive are those of the source. Cut-off read from the data, not from the text of the source: active = GI50 up to about 1.1 µM and inactive = higher.

What the record says about Cc1ccc(N/C(=C(/C(Cl)=C(Cl)Cl)[N+](=O)[O-])n2nnc3ccccc32)cc1 : GI50 is 20.4 µM (inactive)

CCCn1c(SC)nc(COC(=O)NC)c1COC(=O)NC yielded GI50 of > 100 µM (inactive)

The molecule identified as CCOC(=O)/C(C#N)=C/c1coc2cc(C)cc(C)c2c1=O registered its GI50 at > 100 µM (inactive)

I'm hoping you can list GI50 for every molecule here, please.
1. Cn1c(C2CCCc3c2c2ccccc2n3C)cc2ccccc21 (stereo not given)
2. CN(C)/C=N/S(=O)(=O)c1nn2c(C=O)c(-c3ccc(-c4ccccc4)cc3)nc2s1
3. C/C(=N/NC(N)=S)C(CN(C)C)C(C1=C(O)c2ccccc2OC1)c1ccccc1 (stereo not given)
4. COC(=O)C1=C(O)C(C(=O)OC)[C@]2(O)[C@H](C(=O)OC)[C@H]1C[C@@H](c1c(Cl)cccc1Cl)[C@H]2C(=O)OC (stereo not given in full)
5. O=c1cc(N2CCNCC2)nc2ccccn12
6. O=c1[nH]c2ccccc2n1C1CCN(CCCC(c2ccc(F)cc2)c2ccc(F)cc2)CC1 [PIMOZIDE]

[out]
1: 222 µM (inactive); 2: 1.97 µM (inactive); 3: > 100 µM (inactive); 4: 2.23 µM (inactive); 5: > 100 µM (inactive); 6: 12.2 µM (inactive)

The molecule listed as C1CSCCSCCCSC2CCCCC2SC1 (stereo not given) shows GI50 equal to > 100 µM (inactive)
